Data origin: ChEMBL document CHEMBL5331145

method_description: Clearance in dog at 2 mg/kg, iv measured upto 24 hrs by LC-MS/MS analysis
Assay type: ADME, organism-based, Canis lupus familiaris
assay_conditions: in vivo
metric: clearance (L/h/kg)
Quick note: give the figure in L/h/kg, leave out the unit.

Report clearance, nothing else, for this compound: Cc1cn(C2=CCC3C4CC=C5C[C@@H](NC(=O)c6ccc(F)cc6)CC[C@]5(C)C4CC[C@]23C)cn1.Cl (stereo partly specified)
0.412

====

method_description: Cmax in dog at 10 mg/kg, po measured upto 24 hrs by LC-MS/MS analysis
Format: ADME, organism-based, Canis lupus familiaris
Parameters: dose 10 mg/kg, time < 24 hrs, route po
assay_conditions: in vivo
metric: Cmax
Record the result as a number with its unit.

Report Cmax, nothing else, for this molecule: Cc1cn(C2=CCC3C4CC=C5C[C@@H](NC(=O)c6ccc(F)cc6)CC[C@]5(C)C4CC[C@]23C)cn1.Cl (stereo partly specified)
907 ng/mL

====

method_description: Cmax in Sprague-Dawley rat at 10 mg/kg, po measured upto 24 hrs by LC-MS/MS analysis
Assay type: ADME, organism-based
Set-up: dose 10 mg/kg, time < 24 hrs, route po
assay_conditions: in vivo
Hi there, I'd appreciate the recorded Cmax for every entry that follows.
Record the result as a number with its unit.

Report Cmax, nothing else, for this compound: Cc1cn(C2=CCC3C4CC=C5C[C@@H](NC(=O)c6ccc(F)cc6F)CC[C@]5(C)C4CC[C@]23C)cn1 (some centres undefined)
1520 ng/mL

Report Cmax, nothing else, for this compound: Cc1cn(C2=CCC3C4CC=C5C[C@@H](NC(=O)c6ccc(F)cc6)CC[C@]5(C)C4CC[C@]23C)cn1.Cl (some centres undefined)
8800 ng/mL

Report Cmax, nothing else, for this compound: Cc1cn(C2=CCC3C4CC=C5C[C@@H](NC(=O)c6ccc(F)cc6)CC[C@]5(C)C4CC[C@]23C)cn1 (some centres undefined)
6430 ng/mL

Report Cmax, nothing else, for this compound: Cc1cn(C2=CCC3C4CC=C5C[C@@H](NC(=O)c6ccncc6)CC[C@]5(C)C4CC[C@]23C)cn1 (some centres undefined)
2670 ng/mL

====

metric: pIC50
Scale for pIC50: -log10 of concentration given in mol/L; no unit attached.

Identify measured pIC50 obtained with Cytochrome P450 2C9 (Homo sapiens) for Cc1cn(C2=CCC3C4CC=C5C[C@@H](NC(=O)c6ccc(F)cc6)CC[C@]5(C)C4CC[C@]23C)cn1 (stereo partly specified) .
Sequence (P11712 whole entry): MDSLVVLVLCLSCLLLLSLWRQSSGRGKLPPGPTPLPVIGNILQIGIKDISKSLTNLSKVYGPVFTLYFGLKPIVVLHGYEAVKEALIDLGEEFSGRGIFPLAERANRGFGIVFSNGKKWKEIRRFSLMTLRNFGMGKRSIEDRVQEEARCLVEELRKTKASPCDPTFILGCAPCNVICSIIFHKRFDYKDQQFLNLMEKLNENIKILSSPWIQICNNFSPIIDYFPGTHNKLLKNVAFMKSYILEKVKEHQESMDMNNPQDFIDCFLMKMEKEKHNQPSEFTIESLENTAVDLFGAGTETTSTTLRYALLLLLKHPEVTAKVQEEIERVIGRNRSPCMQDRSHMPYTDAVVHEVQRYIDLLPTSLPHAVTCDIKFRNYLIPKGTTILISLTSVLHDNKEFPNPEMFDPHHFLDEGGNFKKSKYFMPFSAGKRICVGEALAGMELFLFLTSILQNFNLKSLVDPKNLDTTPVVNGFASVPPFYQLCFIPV
4.51

====

measured_target: Progesterone receptor (Homo sapiens)
Sequence (P06401 whole entry): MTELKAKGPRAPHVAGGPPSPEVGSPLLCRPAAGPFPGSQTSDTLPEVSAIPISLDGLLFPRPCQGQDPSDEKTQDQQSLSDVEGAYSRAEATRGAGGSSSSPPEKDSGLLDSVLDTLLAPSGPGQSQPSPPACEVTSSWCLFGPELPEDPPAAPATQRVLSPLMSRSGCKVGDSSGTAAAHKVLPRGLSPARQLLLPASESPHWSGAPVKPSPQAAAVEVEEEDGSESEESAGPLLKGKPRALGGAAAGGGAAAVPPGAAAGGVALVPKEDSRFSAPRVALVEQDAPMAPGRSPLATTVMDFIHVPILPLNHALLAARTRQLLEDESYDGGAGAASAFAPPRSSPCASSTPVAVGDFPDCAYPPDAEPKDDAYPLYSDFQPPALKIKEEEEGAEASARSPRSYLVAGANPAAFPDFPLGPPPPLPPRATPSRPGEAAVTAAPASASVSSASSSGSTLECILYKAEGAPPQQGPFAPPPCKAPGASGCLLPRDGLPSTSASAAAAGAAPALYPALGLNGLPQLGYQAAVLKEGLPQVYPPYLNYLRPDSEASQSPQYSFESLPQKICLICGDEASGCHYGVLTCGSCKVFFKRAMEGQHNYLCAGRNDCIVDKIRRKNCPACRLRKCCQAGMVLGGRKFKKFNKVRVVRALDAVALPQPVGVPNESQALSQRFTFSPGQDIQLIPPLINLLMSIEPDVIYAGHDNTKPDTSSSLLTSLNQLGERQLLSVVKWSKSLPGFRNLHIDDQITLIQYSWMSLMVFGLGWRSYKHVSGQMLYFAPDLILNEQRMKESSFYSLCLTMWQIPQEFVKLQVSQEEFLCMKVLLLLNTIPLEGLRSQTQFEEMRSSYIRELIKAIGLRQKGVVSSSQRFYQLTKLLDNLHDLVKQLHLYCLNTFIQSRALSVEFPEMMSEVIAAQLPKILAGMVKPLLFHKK
metric: IC50

Report IC50, nothing else, for this compound: Cc1cn(C2=CCC3C4CC=C5C[C@@H](NC(=O)c6ccc(F)cc6)CC[C@]5(C)C4CC[C@]23C)cn1 (stereo partly specified)
> 30 µM
